Assayed Target: T1, Peptide B (human PAR-2), N-terminal biotinylated (Human)
T1 construct: also called Peptide B N-Term
T1 peptide: Biotin-GGGGSSLIGKVDGTSHVTG
Experimental Details: SPR, peptide immobilized
Where no end group is shown, it is not given here. The star is where a group is joined. Biotin = O=C1N[C@H]2[C@H](CS[C@H]2CCCCC(=O)*)N1
Overview of recorded Kd for various binders

Binder	Kd
H4H588N (antibody, human IgG4, V domains shown, also called H2M588N variable regions) VH: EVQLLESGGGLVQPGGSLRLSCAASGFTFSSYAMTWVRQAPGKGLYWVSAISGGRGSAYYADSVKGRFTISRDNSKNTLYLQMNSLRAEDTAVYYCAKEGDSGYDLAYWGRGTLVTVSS VL: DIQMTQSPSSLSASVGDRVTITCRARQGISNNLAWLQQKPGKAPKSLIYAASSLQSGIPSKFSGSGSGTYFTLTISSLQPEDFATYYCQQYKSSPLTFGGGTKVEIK	0.0272 nM
H4H579P (antibody, human IgG4, V domains shown, also called H1H579P variable regions) VH: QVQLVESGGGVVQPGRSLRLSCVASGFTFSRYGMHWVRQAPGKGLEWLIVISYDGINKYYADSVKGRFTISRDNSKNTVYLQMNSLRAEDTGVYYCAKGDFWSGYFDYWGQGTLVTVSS VL: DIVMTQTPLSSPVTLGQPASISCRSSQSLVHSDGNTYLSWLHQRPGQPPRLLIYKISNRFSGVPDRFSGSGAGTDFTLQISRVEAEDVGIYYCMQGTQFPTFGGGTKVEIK	5.44 nM
H4H585P (antibody, human IgG4, V domains shown, also called H1H585P variable regions) VH: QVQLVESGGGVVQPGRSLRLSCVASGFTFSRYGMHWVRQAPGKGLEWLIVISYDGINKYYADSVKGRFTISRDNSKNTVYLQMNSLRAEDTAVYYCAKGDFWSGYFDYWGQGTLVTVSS VL: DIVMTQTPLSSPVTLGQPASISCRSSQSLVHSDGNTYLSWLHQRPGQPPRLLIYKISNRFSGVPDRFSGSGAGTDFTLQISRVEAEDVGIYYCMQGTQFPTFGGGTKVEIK	5.41 nM
H4H581P (antibody, human IgG4, V domains shown, also called mAb H4H581P; H1H581P variable regions) VH: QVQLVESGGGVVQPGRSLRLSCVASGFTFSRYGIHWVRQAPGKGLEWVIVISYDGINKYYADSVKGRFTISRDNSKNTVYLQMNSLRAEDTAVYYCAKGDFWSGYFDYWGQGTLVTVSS VL: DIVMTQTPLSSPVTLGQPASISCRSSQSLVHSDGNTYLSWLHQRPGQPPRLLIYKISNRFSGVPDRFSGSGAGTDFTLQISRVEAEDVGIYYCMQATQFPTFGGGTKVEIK	2.72 nM

Data credit: patent US20110059095A1
